PROCEDURE_SUMMARY: Solubility in water at 37° C. (HPLC, calibration curve method)
Type: physicochemical
EXPERIMENTAL_PARAMETERS: shaken for 4 hr
METRIC: solubility in water (µg/mL)
Numbers only; they are read as µg/mL.

Would you kindly share the measured solubility in water for CNC(=O)Cn1c(=O)n(C2CCN([C@@H]3Cc4cccc5cccc3c45)CC2)c2ccccc21 [Example 17] ? 10

Now the same for CNC(=O)Cn1c(=O)n(C2CCN([C@@H]3Cc4cccc5cccc3c45)CC2)c2ccccc21 [Example 16] 10

Now the same for CNC(=O)Cn1c(=O)n(C2CCN([C@@H]3Cc4cccc5cccc3c45)CC2)c2ccccc21 [Example 10] 300
